# assayExplanation: in vitro
# studyConditions: mouse, Myoblast CC50, AVERAGE (S1 File)
observable: CC50 (µM)
Please give a number only; it is taken to be in µM.

# input Which measured CC50 value corresponds to CN[C@@H]1[C@@H](O)[C@@H](O[C@@H]2[C@@H](O)[C@H](O[C@H]3O[C@H]([C@@H](C)O)[C@@H](O)[C@H](O)[C@H]3N)[C@@H](N)C[C@H]2N)OC[C@]1(C)O [G418, reference compound] ?
# output 166

====

# Tested on: primary mouse myoblasts
# assayExplanation: Cytotoxicity in myoblasts
# studyConditions: read-out: Myoblast CC50; AVERAGE (S1 File)
observable: CC50 (µM)
// return numeric value only (unit: µM, not printed)

# input Param item = C[C@@H](O)C1O[C@H](O[C@@H]2C(N)C[C@@H](NC(=O)[C@@H](O)CCN)[C@@H](O)C2O[C@@H]2O[C@H](CN)[C@H](O)C2O)[C@@H](N)C(O)[C@@H]1O (stereo partly shown) [NB84, reference compound] ; retrieve measured CC50.
# output 279

All figures here come from paper PMC6201930.
